# TARGET_DESC: PI3Kalpha (Homo sapiens, UniProt P42336)
# Construct: His (N)
# Sequence (P27986 whole entry): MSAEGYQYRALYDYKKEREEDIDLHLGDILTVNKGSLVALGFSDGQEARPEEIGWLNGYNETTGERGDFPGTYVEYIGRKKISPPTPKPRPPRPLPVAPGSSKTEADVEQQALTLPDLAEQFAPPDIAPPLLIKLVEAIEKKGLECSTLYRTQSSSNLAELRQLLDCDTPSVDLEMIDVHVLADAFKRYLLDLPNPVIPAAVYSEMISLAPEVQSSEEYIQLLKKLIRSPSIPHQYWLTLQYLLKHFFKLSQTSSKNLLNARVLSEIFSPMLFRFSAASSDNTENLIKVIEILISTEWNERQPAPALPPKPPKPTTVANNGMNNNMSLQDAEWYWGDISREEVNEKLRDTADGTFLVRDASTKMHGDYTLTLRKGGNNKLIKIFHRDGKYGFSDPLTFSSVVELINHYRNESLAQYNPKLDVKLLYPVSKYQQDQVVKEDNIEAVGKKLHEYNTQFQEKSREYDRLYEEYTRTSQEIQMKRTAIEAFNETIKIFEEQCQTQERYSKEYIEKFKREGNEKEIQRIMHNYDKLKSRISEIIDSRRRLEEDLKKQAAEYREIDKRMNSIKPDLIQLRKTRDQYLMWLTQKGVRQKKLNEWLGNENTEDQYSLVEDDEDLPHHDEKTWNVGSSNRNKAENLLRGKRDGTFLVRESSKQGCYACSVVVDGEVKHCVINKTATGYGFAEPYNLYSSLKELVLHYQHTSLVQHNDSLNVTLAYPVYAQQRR
# Sequence (P42336 whole entry): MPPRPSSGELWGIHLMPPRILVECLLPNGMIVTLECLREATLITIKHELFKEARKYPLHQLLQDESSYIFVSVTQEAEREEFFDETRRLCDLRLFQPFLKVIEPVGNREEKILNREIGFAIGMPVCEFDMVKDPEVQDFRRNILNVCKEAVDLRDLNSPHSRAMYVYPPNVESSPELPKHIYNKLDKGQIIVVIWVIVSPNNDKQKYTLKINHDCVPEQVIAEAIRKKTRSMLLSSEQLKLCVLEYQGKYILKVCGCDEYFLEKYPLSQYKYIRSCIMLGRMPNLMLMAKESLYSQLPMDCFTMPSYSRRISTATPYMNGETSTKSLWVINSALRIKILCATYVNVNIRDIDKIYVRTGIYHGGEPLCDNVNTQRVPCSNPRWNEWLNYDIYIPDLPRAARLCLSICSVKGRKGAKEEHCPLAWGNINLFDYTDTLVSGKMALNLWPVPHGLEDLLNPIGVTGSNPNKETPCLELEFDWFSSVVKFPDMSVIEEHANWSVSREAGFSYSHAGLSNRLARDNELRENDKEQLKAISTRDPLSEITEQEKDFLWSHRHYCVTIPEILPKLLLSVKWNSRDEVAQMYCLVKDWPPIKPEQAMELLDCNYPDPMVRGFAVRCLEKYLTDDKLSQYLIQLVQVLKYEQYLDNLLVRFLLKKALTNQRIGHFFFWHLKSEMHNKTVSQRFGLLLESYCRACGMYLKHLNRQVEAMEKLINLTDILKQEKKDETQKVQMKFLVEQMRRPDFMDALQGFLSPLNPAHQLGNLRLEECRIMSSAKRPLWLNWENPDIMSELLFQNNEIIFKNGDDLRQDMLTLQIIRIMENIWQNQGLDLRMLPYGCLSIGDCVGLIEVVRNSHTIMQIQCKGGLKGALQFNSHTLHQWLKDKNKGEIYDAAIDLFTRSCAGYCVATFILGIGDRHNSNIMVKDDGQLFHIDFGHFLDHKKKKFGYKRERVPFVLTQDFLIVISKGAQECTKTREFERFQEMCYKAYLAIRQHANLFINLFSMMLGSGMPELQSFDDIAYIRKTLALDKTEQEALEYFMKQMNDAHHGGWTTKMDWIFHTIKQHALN
# TEST_PROTOCOL: Inhibition of PI3Kalpha-induced PIP-2 phosphorylation (filter-binding assay, 33P-ATP)
# EXPERIMENTAL_PARAMETERS: PI3 Kinase alpha (p85alpha/His-p110alpha), 1 μM ATP; read-out: IC50 PI3Kα
pIC50: −log10 of the molar value.
RESULT_TYPE: pIC50

These solved cases illustrate the format of a correct answer.
* COc1ncc(C#Cc2c(C)ncnc2-c2ccc(C)nc2)cc1NS(=O)(=O)c1ccc(F)cc1F | 9.13
* Cc1ncc(C#Cc2c(C)ncnc2-c2cccc(CN(C)C)c2)cc1NS(C)(=O)=O | 8.05

P = CCc1ncnc(-c2ccnc(C)c2)c1C#Cc1cnc(C)c(NS(=O)(=O)c2ccccc2OC)c1
Q = CCc1ncnc(-c2ccccc2F)c1C#Cc1cnc(C)c(NS(C)(=O)=O)c1
Which record would sort first by descending pIC50, P or Q ? Reply briefly: the label of your chosen item.
P

P = CCc1ncnc(-c2ccc(C)nc2)c1C#Cc1cnc(C)c(NS(=O)(=O)c2ccc(F)cc2F)c1
Q = CCc1ncnc(-c2ccnc(C)c2)c1C#Cc1cnc(C)c(NS(=O)(=O)c2cn(C)cn2)c1
Which record would sort first by descending pIC50, P or Q ? Reply briefly: the label of your chosen item.
P
(P: 9.27, Q: 9.00)

1 = CCc1ncnc(-c2cccc(CN(C)C)c2)c1C#Cc1cnc(C)c(NS(=O)(=O)c2ccc(F)cc2F)c1
2 = COc1ncc(C#Cc2c(C)ncnc2-c2ccnc(C)c2)cc1NS(=O)(=O)c1ccc(F)cc1F
Which record would sort first by descending pIC50, 1 or 2 ? Reply briefly: the label of your chosen item.
2
(2: 9.26, 1: 8.70)

---

# System: BT474 cells
# TEST_PROTOCOL: alamarBlue BT474 cell assay (antiproliferative/cytotoxicity)
# Format: cell-based
# EXPERIMENTAL_PARAMETERS: BT-474 human breast cancer cell line, 5-6 days incubation
Parameter EC50: see the listing below.
State just the number; it will be interpreted in nM.

These solved cases illustrate the format of a correct answer.
• CCc1ncnc(-c2ccc(OC)c(F)c2)c1C#Cc1cnc(C)c(NS(C)(=O)=O)c1 [Example 8] = 279
• CCc1ncnc(-c2cccc(CN(C)C)c2)c1C#Cc1cnc(C)c(NS(=O)(=O)c2ccc(F)cc2F)c1 [Example 30] = 108
• CCc1ncnc(-c2cccc(F)c2)c1C#Cc1cnc(C)c(NS(C)(=O)=O)c1 [Example 61] = 693

Next:
EC50 for CNC(=O)c1ccc(-c2nc(N)nc(C)c2C#Cc2cnc(C)c(NS(C)(=O)=O)c2)cc1Cl [Example 25] ?
231

---

# System: H460 cells
# TEST_PROTOCOL: alamarBlue H460 cell assay (antiproliferative/cytotoxicity)
# Format: cell-based
# EXPERIMENTAL_PARAMETERS: NCI-H460; H460 human lung carcinoma cells
Parameter pEC50: see the listing below.
Kindly note that pEC50 refers to -log10 of the concentration in mol/L and answer with the value alone.

- CCc1ccccc1S(=O)(=O)Nc1cc(C#Cc2c(CC)ncnc2-c2ccnc(C)c2)cnc1C [Example 88]: 6.85
- CCc1ncnc(-c2ccnc(C)c2)c1C#Cc1cnc(C)c(NS(C)(=O)=O)c1 [Example 4]: 6.48
- CCc1nc(N)nc(-c2ccnc(C)c2)c1C#Cc1cnc(C)c(NS(=O)(=O)c2ccc(F)cc2F)c1 [Example 33]: 7.15
- CCc1ncnc(-c2cccc(C#N)c2)c1C#Cc1cnc(C)c(NS(=O)(=O)c2ccc(F)cc2F)c1 [Example 29]: 6.59
- CCc1ncnc(-c2ccc(CN)nc2)c1C#Cc1cnc(C)c(NS(=O)(=O)c2ccccc2C(F)(F)F)c1 [Example 105]: 6.02

pEC50 for CCc1ncnc(-c2ccnc(C)c2)c1C#Cc1cnc(C)c(NS(=O)(=O)c2cc(Cl)ccc2OC)c1 [Example 101] ?
7.09

pEC50 for CCc1ncnc(-c2cccc(F)c2)c1C#Cc1cnc(C)c(NS(C)(=O)=O)c1 [Example 61] ?
6.40

---

# System: H460 cells
# TEST_PROTOCOL: alamarBlue H460 cell assay (antiproliferative/cytotoxicity)
# Assay type: cell-based
# EXPERIMENTAL_PARAMETERS: NCI-H460; H460 human lung carcinoma cells
Parameter EC50: see the listing below.
State just the number; it will be interpreted in nM.

• Cc1ncc(C#Cc2c(C)ncnc2-c2cccc(C#N)c2)cc1NS(C)(=O)=O = 1550
• CCc1ncnc(-c2ccnc(C)c2)c1C#Cc1cnc(C)c(NS(=O)(=O)c2ccc(C)cc2C)c1 = 365
• CCc1ncnc(-c2ccc(CNC(=O)OC(C)(C)C)nc2)c1C#Cc1cnc(C)c(NS(=O)(=O)c2ccccc2)c1 = 104
• COc1ncc(C#Cc2c(C)nc(N)nc2-c2ccnc(C)c2)cc1NS(=O)(=O)c1ccc(F)cc1F = 13
• CCc1ncnc(-c2ccnc(C)c2)c1C#Cc1cnc(C)c(NS(=O)(=O)c2ccc(CNC(C)=O)cc2)c1 = 2580
• CCc1nc(N)nc(-c2ccnc(C)c2)c1C#Cc1cnc(C)c(NS(C)(=O)=O)c1 = 294

Next:
EC50 for CCc1ncnc(-c2ccnc(C)c2)c1C#Cc1cnc(C)c(NS(=O)(=O)c2ccc(C(C)(C)C)cc2)c1 ?
2490

---

# System: BT474 cells
# TEST_PROTOCOL: alamarBlue BT474 cell assay (antiproliferative/cytotoxicity)
# Type: cell-based
# EXPERIMENTAL_PARAMETERS: BT-474 human breast cancer cell line, 5-6 days incubation
RESULT_TYPE: pEC50
Kindly note that pEC50 refers to -log10 of the concentration in mol/L and answer with the value alone.

These solved cases illustrate the format of a correct answer.
• COc1ncc(C#Cc2c(C)ncnc2-c2ccc(C(=O)N3CCN(C)CC3)c(F)c2)cc1NS(=O)(=O)c1ccc(F)cc1F = 8.05
• CCc1ncnc(-c2ccc(OC)c(OC)c2)c1C#Cc1cnc(C)c(NS(C)(=O)=O)c1 = 7.03
• CCc1ncnc(-c2ccnc(C)c2)c1C#Cc1cnc(C)c(NS(=O)(=O)c2ccc(C)cc2)c1 = 6.52
• CCc1ccc(S(=O)(=O)Nc2cc(C#Cc3c(CC)ncnc3-c3ccnc(C)c3)cnc2C)cc1 = 6.13
• CCc1ncnc(-c2ccnc(C)c2)c1C#Cc1cnc(C)c(NS(=O)(=O)c2cn(C)cn2)c1 = 6.39
• CCc1nc(N)nc(-c2ccc(C)nc2)c1C#Cc1cnc(C)c(NS(=O)(=O)c2ccc(F)cc2F)c1 = 7.39
• CCc1ncnc(-c2ccnc(C)c2)c1C#Cc1cnc(C)c(NS(C)(=O)=O)c1 = 6.77

Next:
// map CCc1ncnc(-c2ccc(CNC(=O)OC(C)(C)C)nc2)c1C#Cc1cnc(C)c(NS(=O)(=O)c2ccc(F)cc2F)c1 to recorded pEC50 (system: BT474 cells)
7.59

---

# Test system: MB453 cells
# TEST_PROTOCOL: alamarBlue MB453 cell assay (antiproliferative/cytotoxicity)
# Type: cell-based
# EXPERIMENTAL_PARAMETERS: Homo sapiens; MDA MB 453 breast cancer cell line
RESULT_TYPE: EC50 (nM)
State just the number; it will be interpreted in nM.

* CCc1ncnc(-c2ccccc2)c1C#Cc1cnc(C)c(NS(C)(=O)=O)c1 | 452

EC50 for CCc1nc(N)nc(-c2ccc(C)nc2)c1C#Cc1cnc(C)c(NS(=O)(=O)c2ccc(F)cc2F)c1 ?
37

EC50 for CCc1ncnc(-c2ccccc2OC)c1C#Cc1cnc(C)c(NS(C)(=O)=O)c1 ?
2900

EC50 for CCc1ncnc(-c2ccc(CN)cc2)c1C#Cc1cnc(C)c(NS(C)(=O)=O)c1 ?
240

---

# TARGET_DESC: PI3Kalpha (Homo sapiens, UniProt P42336)
# Construct: His (N)
# TEST_PROTOCOL: Inhibition of PI3Kalpha-induced PIP-2 phosphorylation (filter-binding assay, 33P-ATP)
# EXPERIMENTAL_PARAMETERS: PI3 Kinase alpha (p85alpha/His-p110alpha), 1 μM ATP; read-out: IC50 PI3Kα
pIC50: −log10 of the molar value.
RESULT_TYPE: pIC50

These solved cases illustrate the format of a correct answer.
• CCc1ncnc(-c2ccc(OC)c(OC)c2)c1C#Cc1cnc(C)c(NS(C)(=O)=O)c1 = 9.00
• Cc1cc(-c2ncnc(C)c2C#Cc2cncc(NS(C)(=O)=O)c2)ccn1 = 8.70
• CCc1ncnc(-c2ccnc(C)c2)c1C#Cc1cnc(C)c(NS(C)(=O)=O)c1 = 8.70
• CCc1nc(N)nc(-c2ccnc(C)c2)c1C#Cc1cnc(C)c(NS(C)(=O)=O)c1 = 9.02

1 = CCc1nc(N)nc(-c2ccc(CN3CCOCC3)cc2)c1C#Cc1cnc(C)c(NS(C)(=O)=O)c1
2 = CCc1cc(-c2ncnc(CC)c2C#Cc2cnc(C)c(NS(C)(=O)=O)c2)ccn1
In terms of reported pIC50, does 1 or 2 have the smaller number? Reply briefly: the label of your chosen item.
1

A = CCc1nc(N)nc(-c2cccnc2)c1C#Cc1cnc(C)c(NS(C)(=O)=O)c1
B = CCc1nc(N)nc(-c2cccc(C#N)c2)c1C#Cc1cnc(C)c(NS(=O)(=O)c2ccc(F)cc2F)c1
In terms of reported pIC50, does A or B have the smaller number? Reply briefly: the label of your chosen item.
A
(A: 8.70, B: 9.05)

The origin of these recorded values is patent US8466162B2.
